system_name: Rat TRPA1 expressing CHO cells (Rattus norvegicus, UniProt Q6RI86)
Construct: expressed in transfected cells; host or cells: CHO cells (Zeocin selection)
Sequence (Q6RI86 whole entry): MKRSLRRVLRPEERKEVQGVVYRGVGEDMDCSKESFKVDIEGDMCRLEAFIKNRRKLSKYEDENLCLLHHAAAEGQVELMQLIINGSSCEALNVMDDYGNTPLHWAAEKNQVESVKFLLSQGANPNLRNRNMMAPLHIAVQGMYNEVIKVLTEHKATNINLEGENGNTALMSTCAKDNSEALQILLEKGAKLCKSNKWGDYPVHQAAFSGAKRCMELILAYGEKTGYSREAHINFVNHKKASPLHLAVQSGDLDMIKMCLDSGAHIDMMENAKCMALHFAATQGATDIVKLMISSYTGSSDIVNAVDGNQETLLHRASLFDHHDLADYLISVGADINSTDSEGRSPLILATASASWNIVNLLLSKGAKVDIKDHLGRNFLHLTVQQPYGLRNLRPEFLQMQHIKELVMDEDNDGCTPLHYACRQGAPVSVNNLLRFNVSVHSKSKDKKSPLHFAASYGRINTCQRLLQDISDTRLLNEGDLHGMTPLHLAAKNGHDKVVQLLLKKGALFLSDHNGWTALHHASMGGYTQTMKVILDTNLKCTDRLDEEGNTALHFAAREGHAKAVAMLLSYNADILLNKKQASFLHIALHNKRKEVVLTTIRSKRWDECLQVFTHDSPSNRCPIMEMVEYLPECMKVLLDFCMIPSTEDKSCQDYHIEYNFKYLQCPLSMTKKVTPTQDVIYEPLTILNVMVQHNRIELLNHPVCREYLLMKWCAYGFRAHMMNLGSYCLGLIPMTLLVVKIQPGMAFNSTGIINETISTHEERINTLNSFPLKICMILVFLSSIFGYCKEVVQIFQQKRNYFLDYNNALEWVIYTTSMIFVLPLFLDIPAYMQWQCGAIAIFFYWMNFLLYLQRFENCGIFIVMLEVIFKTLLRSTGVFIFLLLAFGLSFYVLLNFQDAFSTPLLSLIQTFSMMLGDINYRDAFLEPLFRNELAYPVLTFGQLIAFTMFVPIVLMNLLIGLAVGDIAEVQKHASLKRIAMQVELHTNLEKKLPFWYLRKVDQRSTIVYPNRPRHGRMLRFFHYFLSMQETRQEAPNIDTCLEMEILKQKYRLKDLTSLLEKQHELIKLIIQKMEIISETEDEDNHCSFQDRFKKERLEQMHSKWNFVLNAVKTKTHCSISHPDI
assay_procedure: 45Calcium uptake assay, inhibition of AITC induced calcium uptake (rat)
Format: cell-based
details: rat TRPA1 CHO cells, AITC 10 μM, compound 10.0 μM; read-out: Percentage inhibition at 10.0 μM
measure_name: inhibition at 10 µM (%)

Which measured inhibition at 10 µM belongs to Cc1sc2c(c1CC(=O)Nc1nc(-c3ccc(F)c(C(F)(F)F)c3F)cs1)c(=O)n(C)c(=O)n2C [Example 27] , tested on Rat TRPA1 expressing CHO cells (Rattus norvegicus, UniProt Q6RI86)?
98

What would you report for CCc1sc2c(c1CC(=O)Nc1nc(-c3cc(F)c(OCC(F)(F)F)c(F)c3)cs1)c(=O)n(C)c(=O)n2C [Example 34] ?
93.3

What would you report for Cn1c(=O)c2c(CC(=O)Nc3nc(-c4ccc(C(F)(F)F)cc4F)cs3)scc2n(C)c1=O [Example 51] ?
100

What would you report for Cn1c(=O)c2c(CC(=O)Nc3nc(-c4ccc(C(F)(F)F)cc4)cs3)scc2n(C)c1=O [Example 47] ?
99.6

What would you report for Cn1c(=O)c2c(CC(=O)Nc3nc(-c4ccc(C(F)(F)F)c(F)c4F)cs3)scc2n(C)c1=O [Example 56] ?
100

What would you report for CCCc1sc2c(c1CC(=O)Nc1nc(-c3ccc(C(F)(F)F)c(F)c3)cs1)c(=O)n(C)c(=O)n2C [Example 35] ?
98.3

What would you report for Cn1c(=O)c2c(CC(=O)Nc3nc(-c4ccc(F)c(C(F)(F)F)c4)cs3)scc2n(C)c1=O [Example 49] ?
99

---

system_name: Rat TRPA1 expressing CHO cells (Rattus norvegicus, UniProt Q6RI86)
Construct: expressed in transfected cells; host or cells: CHO cells (Zeocin selection)
assay_procedure: 45Calcium uptake assay, inhibition of AITC induced calcium uptake (rat)
Format: cell-based
details: rat TRPA1 CHO cells, AITC 10 μM, compound 1.0 μM; read-out: Percentage inhibition at 1.0 μM
measure_name: inhibition at 1 µM (%)

# get_value(readout='inhibition at 1 µM', item= `Cn1c(=O)c2c(CC(=O)Nc3nc(-c4ccc(C(F)(F)F)c(F)c4F)cs3)scc2n(C)c1=O` )
96.9

P = CCc1sc2c(c1CC(=O)Nc1nc(-c3ccc(C(F)(F)F)c(F)c3)cs1)c(=O)n(C)c(=O)n2C
Q = Cn1c(=O)c2c(CC(=O)Nc3nc(-c4cc(F)c(OC(F)F)c(F)c4)cs3)scc2n(C)c1=O
R = Cn1c(=O)c2c(CC(=O)Nc3nc(-c4cc(F)c(OCC(F)(F)F)c(F)c4)cs3)scc2n(C)c1=O
Endpoint returns the given molecules ordered by ascending inhibition at 1 µM. Please list each label once, in the requested order.
Q, R, P
(Q: 12.7%, R: 21%, P: 96.8%)

---

system_name: Human TRPA1 expressing CHO cells (Homo sapiens, UniProt O75762)
Construct: expressed in transfected cells; host or cells: CHO cells (G-418 selection)
Sequence (O75762 whole entry): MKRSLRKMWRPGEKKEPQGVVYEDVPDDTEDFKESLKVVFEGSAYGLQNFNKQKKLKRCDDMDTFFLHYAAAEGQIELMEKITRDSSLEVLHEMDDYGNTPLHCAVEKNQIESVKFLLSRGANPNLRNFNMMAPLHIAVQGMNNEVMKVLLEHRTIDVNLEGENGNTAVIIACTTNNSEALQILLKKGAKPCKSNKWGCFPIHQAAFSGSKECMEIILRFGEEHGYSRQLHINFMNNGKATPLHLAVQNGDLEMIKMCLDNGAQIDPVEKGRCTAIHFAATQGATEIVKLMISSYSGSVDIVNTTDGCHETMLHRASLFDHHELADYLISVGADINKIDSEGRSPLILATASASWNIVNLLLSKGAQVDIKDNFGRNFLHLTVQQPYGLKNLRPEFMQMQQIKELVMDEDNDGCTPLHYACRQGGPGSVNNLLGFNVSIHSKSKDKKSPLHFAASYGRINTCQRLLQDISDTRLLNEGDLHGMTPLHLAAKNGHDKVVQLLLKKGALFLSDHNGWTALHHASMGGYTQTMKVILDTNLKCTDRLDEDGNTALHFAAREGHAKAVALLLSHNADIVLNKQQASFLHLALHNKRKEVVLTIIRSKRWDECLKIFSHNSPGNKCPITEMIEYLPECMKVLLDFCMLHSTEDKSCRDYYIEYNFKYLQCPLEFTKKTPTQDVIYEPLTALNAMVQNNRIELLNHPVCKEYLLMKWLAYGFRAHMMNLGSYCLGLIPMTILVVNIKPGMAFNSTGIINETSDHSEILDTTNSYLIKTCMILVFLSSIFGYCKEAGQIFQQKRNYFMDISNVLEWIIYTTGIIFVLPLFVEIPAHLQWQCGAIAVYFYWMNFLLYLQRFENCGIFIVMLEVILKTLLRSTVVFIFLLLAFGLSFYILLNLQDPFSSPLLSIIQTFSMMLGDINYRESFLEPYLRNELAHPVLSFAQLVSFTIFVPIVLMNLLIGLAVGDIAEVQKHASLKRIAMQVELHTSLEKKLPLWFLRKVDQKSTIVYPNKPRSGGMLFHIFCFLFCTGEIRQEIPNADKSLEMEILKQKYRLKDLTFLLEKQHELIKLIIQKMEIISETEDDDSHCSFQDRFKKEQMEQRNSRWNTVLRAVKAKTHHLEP
assay_procedure: 45Calcium uptake assay, inhibition of AITC induced calcium uptake (human)
Format: cell-based
details: human TRPA1 CHO cells, AITC 30 μM, compound 1.0 μM; read-out: Percentage inhibition at 1.0 μM
measure_name: inhibition at 1 µM (%)

Some molecules with recorded inhibition at 1 µM:
# get_value(readout='inhibition at 1 µM', item= `Cn1c(=O)c2c(CC(=O)Nc3nc(-c4cc(F)c(C(F)(F)F)c(F)c4)cs3)scc2n(C)c1=O` )
84.9

What would you report for `Cn1c(=O)c2c(CC(=O)Nc3nnc(-c4ccc(Br)cc4)s3)csc2n(C)c1=O` ?
9.74

What would you report for `Cn1c(=O)c2c(CC(=O)Nc3nc(-c4ccc(F)c(C(F)(F)F)c4F)cs3)scc2n(C)c1=O` ?
96.9

P = CCCc1sc2c(c1CC(=O)Nc1nc(-c3ccc(C(F)(F)F)c(F)c3)cs1)c(=O)n(C)c(=O)n2C
Q = Cn1c(=O)c2c(CC(=O)Nc3nc(-c4ccc(C(F)(F)F)c(F)c4F)cs3)csc2n(C)c1=O
Between P and Q , whose measured inhibition at 1 µM reads higher? // caller expects the label of the chosen entry
P
(P: 99.1%, Q: 60%)

1 = Cn1c(=O)c2c(CC(=O)Nc3nc(-c4ccc(Cl)c(Cl)c4)cs3)csc2n(C)c1=O
2 = Cn1c(=O)c2c(CC(=O)Nc3nc(C(F)(F)F)cs3)csc2n(C)c1=O
Between 1 and 2 , whose measured inhibition at 1 µM reads higher? // caller expects the label of the chosen entry
1
(1: 99.7%, 2: 13.2%)

---

system_name: Human TRPA1 expressing CHO cells (Homo sapiens, UniProt O75762)
Construct: expressed in transfected cells; host or cells: CHO cells (G-418 selection)
assay_procedure: 45Calcium uptake assay, inhibition of AITC induced calcium uptake (human)
Format: cell-based
details: human TRPA1 CHO cells, AITC 30 μM, compound 10.0 μM; read-out: Percentage inhibition at 10.0 μM
measure_name: inhibition at 10 µM (%)

# get_value(readout='inhibition at 10 µM', item= Cn1c(=O)c2c(CC(=O)Nc3nc(-c4ccc(C(F)(F)F)c(F)c4F)cs3)csc2n(C)c1=O [Example 15] )
96.8

I = Cn1c(=O)c2c(CC(=O)Nc3nc(-c4ccc(C(F)(F)F)c(F)c4)cs3)scc2n(C)c1=O [Example 50]
II = Cn1c(=O)c2c(CC(=O)Nc3nccc(-c4ccc(Br)cc4)n3)csc2n(C)c1=O [Example 43]
For the pair I and II , which member has the lower inhibition at 10 µM number? // caller expects the label of the chosen entry
II

A = Cn1c(=O)c2c(CC(=O)Nc3nc(-c4ccc(F)c(C(F)(F)F)c4)cs3)scc2n(C)c1=O [Example 49]
B = Cn1c(=O)c2c(CC(=O)Nc3nc(C(F)(F)F)cs3)csc2n(C)c1=O [Example 1]
For the pair A and B , which member has the lower inhibition at 10 µM number? // caller expects the label of the chosen entry
B

---

system_name: Rat TRPA1 expressing CHO cells (Rattus norvegicus, UniProt Q6RI86)
Construct: expressed in transfected cells; host or cells: CHO cells (Zeocin selection)
assay_procedure: 45Calcium uptake assay, inhibition of AITC induced calcium uptake (rat)
Format: cell-based
details: rat TRPA1 CHO cells, AITC 10 μM, compound 1.0 μM; read-out: Percentage inhibition at 1.0 μM
Description: Screening for TRPA1 Antagonist Using the ^45Calcium Uptake Assay: The inhibition of TRPA1 receptor activation was measured as inhibition of allyl isothiocyanate (AITC) induced cellular uptake of radioactive calcium. Test compounds were dissolved in 100% DMSO to prepare 10 mM stock and then diluted using plain medium with 0.1% BSA and 1.8 mM CaCl2 to get the desired concentration. […] Radioactivity in the lysate was measured in a Packard TopCount after addition of liquid scintillant. […]
measure_name: inhibition at 1 µM (%)

# get_value(readout='inhibition at 1 µM', item= `Cn1c(=O)c2c(CC(=O)Nc3nc(-c4cccc(C(F)(F)F)c4)cs3)scc2n(C)c1=O` )
93.2

What would you report for `Cn1c(=O)c2c(CC(=O)Nc3nc(-c4ccc(C(F)(F)F)cc4)cs3)scc2n(C)c1=O` ?
88.9

What would you report for `Cn1c(=O)c2c(CC(=O)Nc3nc(-c4ccc(C(F)(F)F)cc4F)cs3)scc2n(C)c1=O` ?
93

What would you report for `CCc1sc2c(c1CC(=O)Nc1nc(-c3ccc(F)c(C(F)(F)F)c3F)cs1)c(=O)n(C)c(=O)n2C` ?
99.9

What would you report for `CCc1sc2c(c1CC(=O)Nc1nc(-c3cc(F)c(OCC(F)(F)F)c(F)c3)cs1)c(=O)n(C)c(=O)n2C` ?
88.7

What would you report for `Cc1sc2c(c1CC(=O)Nc1nc(-c3ccc(C(F)(F)F)c(F)c3)cs1)c(=O)n(C)c(=O)n2C` ?
99.8

What would you report for `Cn1c(=O)c2c(CC(=O)Nc3nc(-c4cccc(C(F)(F)F)c4F)cs3)csc2n(C)c1=O` ?
100

---

system_name: Rat TRPA1 expressing CHO cells (Rattus norvegicus)
Construct: expressed in transfected cells; host or cells: CHO cells (Zeocin selection)
assay_procedure: 45Calcium uptake assay, inhibition of AITC induced calcium uptake (rat)
Type: cell-based
details: rat TRPA1 CHO cells, AITC 10 μM, compound 1.0 μM; read-out: Percentage inhibition at 1.0 μM
measure_name: inhibition at 1 µM (%)

# get_value(readout='inhibition at 1 µM', item= Cc1sc2c(c1CC(=O)Nc1nc(-c3ccc(Cl)c(Cl)c3)cs1)c(=O)n(C)c(=O)n2C [Example 20] )
83.4

What would you report for Cc1sc2c(c1CC(=O)Nc1nc(-c3cccc(OC(F)(F)F)c3)cs1)c(=O)n(C)c(=O)n2C [Example 18] ?
95.7

What would you report for Cn1c(=O)c2c(CC(=O)Nc3nc(-c4ccc(Cl)c(Cl)c4)cs3)scc2n(C)c1=O [Example 53] ?
42.7

What would you report for CCCc1sc2c(c1CC(=O)Nc1nc(-c3cc(F)c(OC(F)F)c(F)c3)cs1)c(=O)n(C)c(=O)n2C [Example 36] ?
99.1

What would you report for Cn1c(=O)c2c(CC(=O)Nc3nc(-c4ccc(F)c(OC(F)(F)F)c4)cs3)csc2n(C)c1=O [Example 10] ?
96.1

What would you report for Cc1sc2c(c1CC(=O)Nc1nc(-c3ccc(C(C)(C)C)cc3)cs1)c(=O)n(C)c(=O)n2C [Example 17] ?
93.1

What would you report for CCc1sc2c(c1CC(=O)Nc1nc(-c3ccc(C#N)cc3)cs1)c(=O)n(C)c(=O)n2C [Example 30] ?
46.4

What would you report for Cn1c(=O)c2c(CC(=O)Nc3nc(-c4cc(F)cc(C(F)(F)F)c4)cs3)scc2n(C)c1=O [Example 54] ?
41.6

A = Cn1c(=O)c2c(CC(=O)Nc3nc(-c4ccc(F)c(C(F)(F)F)c4)cs3)scc2n(C)c1=O [Example 49]
B = Cn1c(=O)c2c(CC(=O)Nc3nc(-c4ccc(C(F)(F)F)c(F)c4)cs3)scc2n(C)c1=O [Example 50]
Between A and B , whose measured inhibition at 1 µM reads higher? // caller expects the label of the chosen entry
A
(A: 89.9%, B: 57.4%)
